Data origin, for the record: paper PMC5540273

Tested on: TYK2(JH2domain-pseudokinase);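 further: KINOMEscan kinase panel screen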
MEASUREMENT PARAMETERS: concentration: 1 μM, replicates: in singlicate; n = 1
MEASURED QUANTITY: %Inh (%)
Report only the number, with the unit % understood.

Incoming: Supply %Inh value. Item: Nc1n[nH]c2nnc(-c3ccccc3)cc12
Outgoing: 79

Incoming: Supply %Inh value. Item: CC(C)(C)OC(=O)NC1CCCN(c2cc(-c3ccc4c(N)n[nH]c4c3)nc(N)n2)C1 (centres unmarked)
Outgoing: 0

Incoming: Supply %Inh value. Item: Cn1cc(-c2ccc3c(c2)CCN3C(=O)Cc2cccc(C(F)(F)F)c2)c2c(N)ncnc21
Outgoing: 0

Incoming: Supply %Inh value. Item: FC(F)(F)c1cc(Nc2nccc(-c3c(-c4ccc(Cl)cc4)nn4ncccc34)n2)ccc1Cl
Outgoing: 0

Incoming: Supply %Inh value. Item: FC(F)(F)c1ccc(-c2nn3ncccc3c2-c2ccnc(Nc3cccc(C(F)(F)F)c3)n2)cc1
Outgoing: 0

Incoming: Supply %Inh value. Item: COC(=O)c1c(-c2ccccc2)c2cc(Cl)ccc2c(=O)n1Cc1ccc(S(C)(=O)=O)cc1
Outgoing: 2

Incoming: Supply %Inh value. Item: COc1ccc(NC(=O)Nc2ccc(C)c(-c3ccc(C(=O)Nc4ccncc4)cc3)c2)cc1
Outgoing: 5

Incoming: Supply %Inh value. Item: C[C@@H]1CCN(C(=O)CO)C[C@@H]1N(C)c1ncnc2[nH]ccc12
Outgoing: 0
